So I've got a bunch of compounds here, and I need their GI50 values.
test system: Malme-3M; assay: NCI tumour cell line growth inhibition, 48 h
Calls of active or inactive are those of the source. Rule as the data show it: active = GI50 up to about 1.1 µM and inactive = higher.

| COMPOUND | ENDPOINT | TEST_VALUE |
| --- | --- | --- |
| C=C/C(C)=C\CC1[C@](C)(O)CC[C@H]2C(C)(C)C(O)CC[C@]12C (some centres undefined) | GI50 | > 100 µM (inactive) |

Parameter requested: GI50. Apply to each item below.
1. C=C1c2nc3ccccc3n2C=C(c2ccccc2)N1c1ccc(C)cc1
2. COS(=O)(=O)OCCC(NC(=O)OCc1ccccc1)C(=O)OCc1ccccc1 (centres undefined)

["> 100 µM (inactive)", "> 100 µM (inactive)"]
